The measurements presented in this section are drawn from the supplement of paper PMC12042874.

- Assay protocol: amyloid nucleation score (Sup35N fusion, yeast selection) (log enrichment); library NNK2; higher = more nucleation; inactive = no reads after selection;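 also: zero at mode of non-aggregating sequences after 7 days selection at 30°C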

{"Residue string": "LTCSVNTGYYGYIRRL", "amyloid nucleation score": -0.607}
{"Residue string": "VIDHLRCIETSVWGVVVWRI", "amyloid nucleation score": -0.148}
{"Residue string": "WTFLIIIWYLDIVV", "amyloid nucleation score": -1.76}
{"Residue string": "STIQGIKNRSYRHSSANRVN", "amyloid nucleation score": 0.333}
{"Residue string": "KEPGERRYGTAASMNYTKVD", "amyloid nucleation score": -0.71}
{"Residue string": "GDKCGFCKNAGPGVKVS", "amyloid nucleation score": -0.807}
{"Residue string": "ESQNECVGYNMLDCMKLSRG", "amyloid nucleation score": 4.05}
